In this section we review reported Potency values for a set of compounds.
Target: DNA dC->dU-editing enzyme APOBEC-3F (Homo sapiens) (UniProt Q8IUX4)
Sequence (Q8IUX4 whole entry, looked up): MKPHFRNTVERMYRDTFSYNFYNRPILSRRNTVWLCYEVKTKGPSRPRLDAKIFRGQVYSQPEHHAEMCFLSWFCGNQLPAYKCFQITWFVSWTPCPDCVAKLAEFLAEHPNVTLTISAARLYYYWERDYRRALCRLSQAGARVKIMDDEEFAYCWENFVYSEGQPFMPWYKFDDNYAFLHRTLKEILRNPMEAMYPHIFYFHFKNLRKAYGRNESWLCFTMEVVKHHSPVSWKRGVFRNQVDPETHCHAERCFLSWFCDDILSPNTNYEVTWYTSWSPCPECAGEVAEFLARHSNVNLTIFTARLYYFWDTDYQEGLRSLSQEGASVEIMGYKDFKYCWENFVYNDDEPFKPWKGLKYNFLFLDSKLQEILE
Test: qHTS for inhibitors of Vif-A3F interactions: Cherry picks; note: potency is the fitted concentration of half-maximal effect; nearly all actives have a fitted effect of over 70% in size
Conditions: HeLa A3F-eYFP + Vif, eYFP fluorescence, 24 h
Excerpt: The recent discovery and characterization of host restriction factors, which provide a potent defense to invading retroviruses, has provided new targets for antiviral drug development. […] In the presence of an inhibitor, it is expected that Vif will be unable to degrade A3G-eYFP and/or A3F-eYFP, resulting in an increase in yellow fluorescence. […]
In all, about 2,100 compounds went through this assay and about 590 (28%) were called active. Inconclusive results (about 42%) are left out. The list shows a part of the results.
Reported endpoint: Potency

compound=COc1cccc(N2CC(O)=C(c3nc4ccccc4s3)C2=N)c1 reported_endpoint=Potency result="5.59 µM (active)"
compound=COc1cc(/C=C(/C#N)c2nc3ccccc3[nH]2)ccc1OCC(=O)Nc1ccccc1C(C)C reported_endpoint=Potency result="16.4 µM (active)"
compound=COc1ccc(C(=O)Nc2cccc(/C=C/c3nc4ccccc4c(=O)[nH]3)c2)cc1 reported_endpoint=Potency result="12.5 µM (active)"
compound="COc1cccc(C2=CC(c3cccs3)n3nnnc3N2)c1 (stereo not given)" reported_endpoint=Potency result="6.27 µM (active)"
compound=C=C(/C=C/c1ccc(N(C)C)cc1)c1nc2ccccc2s1 reported_endpoint=Potency result="14.6 µM (active)"

---

In this section we review reported Potency values for a set of compounds.
molecular target: DNA dC->dU-editing enzyme APOBEC-3F (Homo sapiens); assay: qHTS for inhibitors of Vif-A3F interactions: Cherry picks; conditions: HeLa A3F-eYFP + Vif (tagged APOBEC3F with the HIV-1 protein that degrades it), eYFP fluorescence, 24 h; note: potency is the fitted concentration of half-maximal effect; nearly all actives have a fitted effect of over 70% in size
The whole screen tested about 2,100 compounds, of which about 590 (28%) were called active. About 42% were inconclusive and are not listed. Some of the results follow.
Reported endpoint: Potency

compound=COc1cc(/C=C2/SC(=Nc3ccc(O)cc3)NC2=O)ccc1O reported_endpoint=Potency result="16.4 µM (active)"
compound=CN(/N=C/c1ccc(-c2ccc([N+](=O)[O-])cc2)o1)c1ccccc1 reported_endpoint=Potency result="0.731 µM (active)"
compound=CC1CCN(c2ccc3c(c2)S(=O)(=O)c2cccc(C(=O)NCc4cccc(F)c4)c2C3=O)CC1 reported_endpoint=Potency result="14 µM (active)"
compound="Cc1ccc(S(=O)c2ccc([N+](=O)[O-])c3nonc23)cc1 (stereo not given)" reported_endpoint=Potency result="18.4 µM (active)"
compound=COc1cc(/C=C2\SC(=S)N(Nc3ncc(C(F)(F)F)cc3Cl)C2=O)ccc1O reported_endpoint=Potency result="18.4 µM (active)"
compound=CN1/C(=C/C=C(C#N)C#N)C(C)(C)c2ccccc21 reported_endpoint=Potency result="18.4 µM (active)"
compound=O=C(NCc1cccc(F)c1)c1cccc2c1C(=O)c1ccc(N3CCCC3)cc1S2(=O)=O reported_endpoint=Potency result="14 µM (active)"
compound=CN(C)c1ccc(/C=C2\SC(=S)N(Nc3ncc(C(F)(F)F)cc3Cl)C2=O)cc1 reported_endpoint=Potency result="5.8 µM (active)"
compound=N#Cc1c(-c2ccc(F)cc2)c(-c2ccc(F)cc2)nn(CCO)c1=O reported_endpoint=Potency result="7.04 µM (active)"
compound=CN1/C(=C/C=C(/C#N)C(N)=O)C(C)(C)c2ccccc21 reported_endpoint=Potency result="6.27 µM (active)"
